target: GLP-1 receptor (GLP-1R), primary cAMP assay cell line (human, UniProt P43220 24-463); assay: cell-based or functional assay
Starred links: 1 amine or outer side, 2 acyl side, 3 side chain; linkers in the order of their positions; H or OH if unused. Non-standard residues stand in square brackets, D forms with d. Groups on a side chain read outwards from the residue. Primed or numbered codes have the meaning given here. No end group written: not given here. *: point of attachment. γGlu = O=C(O)[C@H](CCC(=O)[*:2])N[*:1]; αMeF = C[C@](N)(Cc1ccccc1)C(=O)O; αMeK = C[C@](N)(CCCCN)C(=O)O; Lauroyl = CCCCCCCCCCCC(=O)*; αMeS = C[C@](N)(CO)C(=O)O; PEG2′ = not defined here; Aib = CC(C)(N)C(=O)O
test-readout: cAMP Primary assay EC50, Mean pM GLP-1R (pM)
Answers are plain numbers, in pM.

Before answering, review these 3 worked examples.
[[record]]
binder = "H[Aib]EGS[αMeF]TSDV[αMeS]SYK([PEG2′-PEG2′-γGlu-Lauroyl])EK([PEG2′-PEG2′-γGlu-Lauroyl])EAA[αMeK]EFIAFK([PEG2′-PEG2′-γGlu-Lauroyl])VEGG-NH2 [SEQ ID NO: 483]"
test_readout = "cAMP Primary assay EC50, Mean pM GLP-1R"
value_reported = 244

[[record]]
binder = "H[Aib]EGS[αMeF]TSDVSK([PEG2′-PEG2′-γGlu-Lauroyl])YLEGEAA[αMeK]K([PEG2′-PEG2′-γGlu-Lauroyl])FIAFK([PEG2′-PEG2′-γGlu-Lauroyl])VEGG-NH2 [SEQ ID NO: 478]"
test_readout = "cAMP Primary assay EC50, Mean pM GLP-1R"
value_reported = 118

[[record]]
binder = "H[Aib]EGS[αMeF]TSDK([PEG2′-PEG2′-γGlu-Lauroyl])SSYLEK([PEG2′-PEG2′-γGlu-Lauroyl])EAA[αMeK]EFIAK([PEG2′-PEG2′-γGlu-Lauroyl])VVEGG-NH2 [SEQ ID NO: 455]"
test_readout = "cAMP Primary assay EC50, Mean pM GLP-1R"
value_reported = 87.4


Now for a further binder.
In: So what's the measured cAMP Primary assay EC50, Mean pM GLP-1R for this one? H[Aib]EGS[αMeF]TSDV[αMeS]SYK([PEG2′-PEG2′-γGlu-Lauroyl])EGEAA[αMeK]K([PEG2′-PEG2′-γGlu-Lauroyl])FIAK([PEG2′-PEG2′-γGlu-Lauroyl])VVEGG-NH2 [SEQ ID NO: 470]
Out: 31.3

All values here come from patent US20200079833A1.
